The reported measurements were obtained from patent US20050009894A1.

# maps each entry to its pIC50
system name: human KDR enzyme (Homo sapiens)
Construct: The cytoplasmic domain of human KDR enzyme is cloned in the form of a GST fusion; GST; made in house; host or cells: SF21 insect cells (baculovirus, pFastBac)
assay protocol: Phosphorylation of the substrate PLCγ by the enzyme KDR in vitro (flashplate technique)
Type: biochemical
setup conditions: Table VII, degrees of activity by IC50 range; read-out: Activity
pIC50: −log10 of the molar value.

{"compound": "Cc1ccccc1CNC(=O)c1ccc2[nH]c(-c3n[nH]c4ccccc34)nc2c1", "pIC50": "> 6.52"}
{"compound": "O=C(NCc1cccs1)c1cccc2nc(-c3n[nH]c4ccccc34)[nH]c12", "pIC50": "< 5.52"}
{"compound": "O=C(NCc1csc2ccccc12)c1ccc2[nH]c(-c3n[nH]c4ccccc34)nc2c1 [Example 63]", "pIC50": "> 6.52"}
{"compound": "N#Cc1cccc(COc2cc(-c3nc4ccccc4[nH]3)[nH]n2)c1", "pIC50": "< 5.52"}
{"compound": "Cc1cc(F)ccc1-c1ccc2nc(-c3[nH]nc4ccccc34)[nH]c2c1", "pIC50": "5.52 to 6.52"}
{"compound": "c1ccc2c(c1)Sc1cccc(-c3ccc4nc(-c5n[nH]c6ccccc56)[nH]c4c3)c1S2", "pIC50": "< 5.52"}
{"compound": "C=C(C)COc1cc(-c2nc3ccccc3[nH]2)[nH]n1", "pIC50": "< 5.52"}

Attention now turns to another entry.
Endpoint output: pIC50 of "O=C(NCc1ccsc1)c1ccc2[nH]c(-c3n[nH]c4ccccc34)nc2c1" . Value?
5.52 to 6.52

----------
system name: human KDR enzyme (Homo sapiens)
Construct: The cytoplasmic domain of human KDR enzyme is cloned in the form of a GST fusion; GST; made in house; host or cells: SF21 insect cells (baculovirus, pFastBac)
assay protocol: Phosphorylation of the substrate PLCγ by the enzyme KDR in vitro (flashplate technique)
Format: biochemical
setup conditions: Table VII, degrees of activity by IC50 range; read-out: Activity
# maps each entry to its IC50

Endpoint output: IC50 of "Clc1ccc(-c2ccc3nc(-c4[nH]nc5ccccc45)[nH]c3c2)c(Cl)c1" . Value?
> 3 µM

Then O=C(NCc1ccc(Br)cc1F)c1ccc2[nH]c(-c3n[nH]c4ccccc34)nc2c1 [Example 157] ?
< 0.3 µM

Then O=C(NCc1ccc(Br)cc1F)c1ccc2[nH]c(-c3n[nH]c4ccccc34)nc2c1 [Example 159] ?
0.3 to 3 µM

Then "Clc1cccc(-c2ccc3nc(-c4[nH]nc5ccccc45)[nH]c3c2)c1" ?
0.3 to 3 µM

Then "c1ccc(COc2ccc(-c3ccc4nc(-c5[nH]nc6ccccc56)[nH]c4c3)cc2)cc1" ?
> 3 µM

Then "O=C(NCc1ccccc1C(F)(F)F)c1ccc2[nH]c(-c3n[nH]c4ccccc34)nc2c1" ?
0.3 to 3 µM

----------
system name: human KDR enzyme (Homo sapiens, UniProt P35968)
Construct: The cytoplasmic domain of human KDR enzyme is cloned in the form of a GST fusion; GST; made in house; host or cells: SF21 insect cells (baculovirus, pFastBac)
Sequence (P35968 786-1356 limits assumed): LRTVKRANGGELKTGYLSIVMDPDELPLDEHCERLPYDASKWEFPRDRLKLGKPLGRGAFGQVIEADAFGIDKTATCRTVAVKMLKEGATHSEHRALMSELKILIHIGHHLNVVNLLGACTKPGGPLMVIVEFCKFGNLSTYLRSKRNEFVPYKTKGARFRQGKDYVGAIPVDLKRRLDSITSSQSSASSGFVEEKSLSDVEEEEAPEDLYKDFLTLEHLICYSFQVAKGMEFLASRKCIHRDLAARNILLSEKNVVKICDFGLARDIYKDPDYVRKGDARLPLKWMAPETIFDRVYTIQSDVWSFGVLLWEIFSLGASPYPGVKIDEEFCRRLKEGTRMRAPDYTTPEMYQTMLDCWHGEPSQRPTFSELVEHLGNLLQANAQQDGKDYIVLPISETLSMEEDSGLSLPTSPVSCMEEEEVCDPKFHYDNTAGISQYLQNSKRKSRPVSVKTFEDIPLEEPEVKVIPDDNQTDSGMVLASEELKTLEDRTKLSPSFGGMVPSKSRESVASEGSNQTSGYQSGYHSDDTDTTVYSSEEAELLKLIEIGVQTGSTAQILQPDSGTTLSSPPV
assay protocol: Phosphorylation of the substrate PLCγ by the enzyme KDR in vitro (flashplate technique)
Assay type: biochemical
setup conditions: Table VII, degrees of activity by IC50 range; read-out: Activity
pIC50: −log10 of the molar value.
quantity kind: pIC50

Example entries and their recorded answers appear below.
{"query smiles": "COc1cc(-c2ccc3nc(-c4[nH]nc5ccccc45)[nH]c3c2)cc(OC)c1OC", "observed result": "5.52 to 6.52"}
{"query smiles": "O=C(NCCc1ccccc1)c1cccc2nc(-c3n[nH]c4ccccc34)[nH]c12", "observed result": "< 5.52"}

human KDR enzyme (Homo sapiens, UniProt P35968) / pIC50 / "O=C(CCc1ccccc1)Oc1cc(-c2nc3ccccc3[nH]2)[nH]n1" : value?
5.52 to 6.52

Then "O=C(NCc1ccc(-c2cc(Cl)cc(Cl)c2)cc1)c1ccc2[nH]c(-c3n[nH]c4ccccc34)nc2c1" ?
< 5.52

Then "O=C(NCc1cccc(Cl)c1)c1cccc2nc(-c3n[nH]c4ccccc34)[nH]c12" ?
< 5.52

Then "c1ccc(COc2cc(-c3nc4ccccc4[nH]3)[nH]n2)cc1" ?
5.52 to 6.52

Then "O=C(NCc1cccc(Br)c1)c1ccc2[nH]c(-c3n[nH]c4ccccc34)nc2c1" ?
5.52 to 6.52

----------
system name: human KDR enzyme (Homo sapiens)
Construct: The cytoplasmic domain of human KDR enzyme is cloned in the form of a GST fusion; GST; made in house; host or cells: SF21 insect cells (baculovirus, pFastBac)
assay protocol: Phosphorylation of the substrate PLCγ by the enzyme KDR in vitro (flashplate technique)
Assay type: biochemical
setup conditions: Table VII, degrees of activity by IC50 range; read-out: Activity
pIC50: −log10 of the molar value.
quantity kind: pIC50

Example entries and their recorded answers appear below.
{"query smiles": "CS(=O)(=O)c1ccc(CNC(=O)c2ccc3[nH]c(-c4n[nH]c5ccccc45)nc3c2)cc1", "pIC50": "> 6.52"}
{"query smiles": "O=C(NCc1ccc(Oc2ccccc2)cc1)c1ccc2[nH]c(-c3n[nH]c4ccccc34)nc2c1", "pIC50": "5.52 to 6.52"}
{"query smiles": "O=C(NCc1ccc(-c2ccccc2Cl)cc1)c1ccc2[nH]c(-c3n[nH]c4ccccc34)nc2c1", "pIC50": "5.52 to 6.52"}

Endpoint output: pIC50 of "O=C(NCc1ccc(C(F)(F)F)cc1)c1ccc2[nH]c(-c3n[nH]c4ccccc34)nc2c1" . Value?
5.52 to 6.52

----------
system name: human KDR enzyme (Homo sapiens)
Construct: The cytoplasmic domain of human KDR enzyme is cloned in the form of a GST fusion; GST; made in house; host or cells: SF21 insect cells (baculovirus, pFastBac)
assay protocol: Phosphorylation of the substrate PLCγ by the enzyme KDR in vitro (flashplate technique)
Assay type: biochemical
setup conditions: Table VII, degrees of activity by IC50 range; read-out: Activity
quantity kind: IC50

Example entries and their recorded answers appear below.
{"query smiles": "O=C(Oc1cc(-c2nc3ccccc3[nH]2)[nH]n1)c1ccncc1", "system name": "human KDR enzyme (Homo sapiens)", "observed result": "0.3 to 3 µM"}
{"query smiles": "C(=C\\c1ccccc1)/COc1cc(-c2nc3ccccc3[nH]2)[nH]n1", "system name": "human KDR enzyme (Homo sapiens)", "observed result": "0.3 to 3 µM"}
{"query smiles": "Cc1cccc(-c2ccc3nc(-c4[nH]nc5ccccc45)[nH]c3c2)c1", "system name": "human KDR enzyme (Homo sapiens)", "observed result": "0.3 to 3 µM"}
{"query smiles": "Brc1cccc(COc2cc(-c3nc4ccccc4[nH]3)[nH]n2)c1", "system name": "human KDR enzyme (Homo sapiens)", "observed result": "0.3 to 3 µM"}
{"query smiles": "Fc1c(F)c(F)c(COc2cc(-c3nc4ccccc4[nH]3)[nH]n2)c(F)c1F", "system name": "human KDR enzyme (Homo sapiens)", "observed result": "> 3 µM"}
{"query smiles": "O=C(NCc1ccc(Cl)cc1F)c1ccc2[nH]c(-c3n[nH]c4ccccc34)nc2c1", "system name": "human KDR enzyme (Homo sapiens)", "observed result": "0.3 to 3 µM"}
{"query smiles": "O=C(NCc1ccc(Br)cc1)c1cccc2nc(-c3n[nH]c4ccccc34)[nH]c12", "system name": "human KDR enzyme (Homo sapiens)", "observed result": "> 3 µM"}
{"query smiles": "O=C(NCc1ccc2c(c1)OCO2)c1ccc2[nH]c(-c3n[nH]c4ccccc34)nc2c1", "system name": "human KDR enzyme (Homo sapiens)", "observed result": "0.3 to 3 µM"}

human KDR enzyme (Homo sapiens) / IC50 / "O=C(COc1cc(-c2nc3ccccc3[nH]2)[nH]n1)C12C[C@H]3C[C@@H](C1)C[C@@H](C2)C3" : value?
> 3 µM

Then "O=C(COc1cc(-c2nc3ccccc3[nH]2)[nH]n1)C(F)(F)C(F)(F)F" ?
> 3 µM
